- measurementTarget: Gonadotropin-releasing hormone receptor (Rattus norvegicus) (UniProt P30969)
- Sequence (P30969 whole entry): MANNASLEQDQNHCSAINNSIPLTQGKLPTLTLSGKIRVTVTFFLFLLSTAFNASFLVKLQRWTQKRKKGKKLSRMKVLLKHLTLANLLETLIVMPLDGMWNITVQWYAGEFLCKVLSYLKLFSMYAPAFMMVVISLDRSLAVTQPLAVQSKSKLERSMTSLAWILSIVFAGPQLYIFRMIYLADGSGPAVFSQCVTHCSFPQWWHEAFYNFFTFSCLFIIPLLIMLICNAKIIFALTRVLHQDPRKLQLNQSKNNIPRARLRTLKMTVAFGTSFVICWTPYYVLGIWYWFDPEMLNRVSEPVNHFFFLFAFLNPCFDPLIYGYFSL
- methodNotes: In vitro antagonistic activity against LH release in rat pituitary cells for control.
- Format: functional, cell-based
- conditionSummary: Pituitary gland cell
Square brackets hold non-standard residues; d marks the D form. Peptide text beside a SMILES is read from it. 2Nal = N[C@@H](Cc1ccc2ccccc2c1)C(=O)O
metricName: Activity

Previously resolved entries follow.
Exercise: Provide Activity value for the following molecule: CC(=O)N[C@@H](Cc1ccc2ccccc2c1)C(=O)N[C@@H](CCCN=C(N)N)C(=O)N[C@@H](C)C(N)=O
Solution: 3.5

Exercise: Look up Activity of CCNC(=O)[C@@H]1CCCN1C(=O)[C@H](CCCN=C(N)N)NC(=O)[C@H](CC(C)C)NC(=O)[C@@H](Cc1c[nH]c2ccccc12)NC(=O)[C@H](Cc1ccc(O)cc1)NC(=O)[C@H](CO)NC(=O)[C@@H](Cc1ccc2ccccc2c1)NC(C)=O and report it.
Solution: 2.1

Exercise: Identify the reported Activity for the following entry. CC(=O)N[C@@H](Cc1ccc2ccccc2c1)C(=O)N[C@@H](C)C(N)=O (Ac-[2Nal]-Ala-NH2)
Solution: 3.5

Exercise: Provide Activity value for the following molecule: CC(=O)N[C@H](Cc1ccc2ccccc2c1)C(=O)N[C@@H](CO)C(=O)N[C@@H](Cc1ccc(O)cc1)C(=O)N[C@H](Cc1ccc2ccccc2c1)C(=O)N[C@@H](CC(C)C)C(=O)N[C@@H](CCCN=C(N)N)C(=O)N1CCC[C@H]1C(N)=O
Solution: 4.1

Exercise: Item CC(=O)N[C@H](Cc1ccc2ccccc2c1)C(=O)N[C@@H](CO)C(=O)N[C@@H](Cc1ccc(O)cc1)C(=O)N[C@H](CCCCNC(=O)c1ccccn1)C(=O)N[C@@H](CC(C)C)C(=O)N[C@@H](CCCN=C(N)N)C(=O)N1CCC[C@H]1C(=O)N[C@H](C)C(N)=O : provide Activity
Solution: 6.3

Exercise: Provide one value: measured Activity of CCNC(=O)[C@@H]1CCCN1C(=O)[C@H](CCCN=C(N)N)NC(=O)[C@H](CC(C)C)NC(=O)[C@@H](Cc1ccc2ccccc2c1)NC(=O)[C@H](Cc1ccc(O)cc1)NC(=O)[C@H](CO)NC(=O)[C@@H](Cc1ccc2ccccc2c1)NC(C)=O
Solution: 3.2

Exercise: Determine its reported Activity: CCNC(=O)[C@@H]1CCCN1C(=O)[C@H](CCCN=C(N)N)NC(=O)[C@H](CC(C)C)NC(=O)[C@H](Cc1ccc2ccccc2c1)NC(C)=O (Ac-[2Nal]LRP-NHEt)
Solution: 3.1

Exercise: Answer with reported Activity of CC(=O)N[C@@H](Cc1ccc2ccccc2c1)C(=O)N[C@@H](CCCCNC(=O)c1ccccn1)C(=O)N1CCC[C@H]1C(N)=O
Solution: 3.1

Exercise: For the molecule CCNC(=O)[C@@H]1CCCN1C(=O)[C@H](CCCN=C(N)N)NC(=O)[C@H](CC(C)C)NC(=O)[C@H](Cc1ccc2ccccc2c1)NC(=O)[C@H](Cc1ccc2ccccc2c1)NC(C)=O (Ac-[2Nal][2Nal]LRP-NHEt) , give its measured Activity value.
Solution: 2.3

Exercise: Read off the recorded Activity for CCNC(=O)[C@@H]1CCCN1C(=O)[C@H](CCCCNC(C)C)NC(=O)[C@H](CC(C)C)NC(=O)C(Cc1ccc2ccccc2c1)NC(=O)[C@H](Cc1ccc(O)cc1)NC(=O)[C@H](CO)NC(=O)C(Cc1ccc2ccccc2c1)NC(C)=O (stereo in doubt)
Solution: 3.5

(a) CCNC(=O)[C@@H]1CCCN1C(=O)[C@H](Cc1ccc2ccccc2c1)NC(C)=O (Ac-[2Nal]-Pro-NHEt)
(b) CCNC(=O)[C@@H]1CCCN1C(=O)[C@H](CCCN=C(N)N)NC(=O)[C@H](CC(C)C)NC(=O)[C@@H](Cc1cccnc1)NC(=O)[C@H](Cc1ccc(O)cc1)NC(=O)[C@H](CO)NC(=O)[C@@H](Cc1ccc2ccccc2c1)NC(C)=O
Exercise: Which is greater in Activity, the first item a or the second item b ? Pick one and reply with its label.
Solution: b
